Tested on: N2a cells
experiment: In vitro cell-based neurite length (N2a) assay
recorded conditions: Mus musculus, neurite retraction induced by 5 uM LPA
assay endpoint: IC50
Number plus unit, in that order.

Form field - read-out: IC50; system: N2a cells; submitted item: COc1ccc2c(c1)CC(C(=O)Nc1ccc(-c3cn[nH]c3)cc1)CO2 (stereo not shown)
27 nM
